Values were extracted from paper PMC11285368.

assay target: SOS1 (Homo sapiens)
Sequence (Q07889 whole entry, species assumed): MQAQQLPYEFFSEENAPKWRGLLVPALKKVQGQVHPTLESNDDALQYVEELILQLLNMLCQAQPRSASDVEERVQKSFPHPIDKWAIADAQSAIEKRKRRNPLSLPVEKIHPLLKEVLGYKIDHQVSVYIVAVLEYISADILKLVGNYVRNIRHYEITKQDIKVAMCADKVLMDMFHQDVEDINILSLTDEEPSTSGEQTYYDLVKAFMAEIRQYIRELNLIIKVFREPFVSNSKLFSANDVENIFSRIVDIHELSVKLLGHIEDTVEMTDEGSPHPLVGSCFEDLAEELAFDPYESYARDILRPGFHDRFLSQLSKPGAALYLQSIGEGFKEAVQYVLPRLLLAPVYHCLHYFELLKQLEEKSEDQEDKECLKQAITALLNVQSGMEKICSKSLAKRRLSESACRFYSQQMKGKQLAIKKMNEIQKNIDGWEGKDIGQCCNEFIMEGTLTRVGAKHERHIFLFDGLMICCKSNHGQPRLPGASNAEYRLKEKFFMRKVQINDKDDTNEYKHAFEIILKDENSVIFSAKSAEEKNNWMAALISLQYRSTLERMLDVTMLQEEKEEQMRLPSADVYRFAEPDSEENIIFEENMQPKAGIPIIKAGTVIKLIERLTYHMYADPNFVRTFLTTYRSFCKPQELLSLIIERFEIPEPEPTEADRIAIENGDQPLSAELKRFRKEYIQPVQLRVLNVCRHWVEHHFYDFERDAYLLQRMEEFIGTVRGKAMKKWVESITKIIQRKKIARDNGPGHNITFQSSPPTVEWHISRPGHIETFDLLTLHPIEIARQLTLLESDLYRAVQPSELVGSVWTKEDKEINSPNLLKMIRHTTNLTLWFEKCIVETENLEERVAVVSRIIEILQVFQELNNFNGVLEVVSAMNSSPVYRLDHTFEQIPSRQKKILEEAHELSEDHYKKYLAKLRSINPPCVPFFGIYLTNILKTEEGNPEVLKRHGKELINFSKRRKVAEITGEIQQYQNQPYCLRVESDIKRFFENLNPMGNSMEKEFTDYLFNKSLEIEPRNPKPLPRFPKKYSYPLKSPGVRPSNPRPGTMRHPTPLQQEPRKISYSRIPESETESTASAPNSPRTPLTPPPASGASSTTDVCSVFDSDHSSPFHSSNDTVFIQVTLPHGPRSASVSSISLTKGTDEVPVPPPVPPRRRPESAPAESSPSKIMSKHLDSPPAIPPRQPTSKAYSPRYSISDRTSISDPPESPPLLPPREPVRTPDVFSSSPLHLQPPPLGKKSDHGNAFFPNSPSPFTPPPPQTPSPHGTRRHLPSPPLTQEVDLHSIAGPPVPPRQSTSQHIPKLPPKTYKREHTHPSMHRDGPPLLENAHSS
test details: SOS1 TR-FRET
Type: biochemical
test settings: read-out: Target #1 IC50
Readings of IC50 for the listed compounds
measured attribute: IC50

compound | result
[Cl][Fe]([Cl])[Cl] [FeCl3, Iron(III) chloride] | 1 to 10 µM
[Cl-].[Cl-].[Co+2] [CoCl2, Cobalt(II) chloride] | > 10 µM
[Cl-].[Cl-].[Mg+2] [MgCl2, Magnesium chloride] | > 10 µM
[Cl][Ni][Cl] [NiCl2, Nickel(II) chloride] | > 10 µM
[Cl][Sn][Cl] [SnCl2, Tin(II) chloride] | 1 to 10 µM
[Cl][Pd][Cl] [PdCl2, Palladium(II) chloride] | 1 to 10 µM
